- System: SK-OV-3 ovarian
- test_method_notes: NCI-60 one-dose screen, 48 h (100 = growth as untreated, 0 = no growth, -100 = all killed)
- experimental_parameters: 10 µM
The panel holds about 83,000 compounds, 20% with a hit somewhere; the sample as a whole holds those more often.
quantity_kind: growth (%)
Write it as a number; the unit % goes unstated.

Solved entries:
>  <compound>
CCN(c1ccc(C(=O)N2CCN(c3ccccc3)CC2)cc1)S(C)(=O)=O

>  <measurement_target>
SK-OV-3 ovarian

>  <growth, %>
106

$$$$
>  <compound>
CC(C)N1CCN(c2ccc(OC[C@H]3CO[C@](Cn4cncn4)(c4ccc(Cl)cc4Cl)O3)cc2)CC1

>  <measurement_target>
SK-OV-3 ovarian

>  <growth, %>
94

$$$$
>  <compound>
CCOC(=O)C1=C(C)N2C(=NC3=C(CCCC/C3=C\c3ccccc3)C2c2ccccc2)S1 (centres undefined)

>  <measurement_target>
SK-OV-3 ovarian

>  <growth, %>
88.5

$$$$

Next up:
Q: Which growth value is on record for CC(C)(C)[Si](C)(C)OC1[C@@H](COC(=O)NC(=O)CCl)O[C@@H](n2cnc3c(N)ncnc32)[C@H]1O[Si](C)(C)C(C)(C)C (some centres undefined) ?
Result: 87.8

---

- Test system: UACC-62 melanoma
- test_method_notes: NCI-60 one-dose screen, 48 h
- experimental_parameters: 10 µM unless noted
About 83,000 compounds went through this panel and 20% of them were active in at least one assay; those are over-represented in the sample as a whole. Active and inactive are the calls of the source. Rule for the calls: active = growth percent below 10; inactive = the rest.
Hi there, use one of these labels in your reply, thanks! y (active), n (inactive)

Record excerpt, results attached:
>  <compound>
CCCCCn1c(=N)n(CC(O)COc2cccc(C)c2)c2ccccc21 (stereo not given)

>  <qualitative_label>
n

$$$$
>  <compound>
CN(C)C(=S)SCN1C(=O)c2ccc([N+](=O)[O-])cc2S1(=O)=O

>  <qualitative_label>
n

$$$$
>  <compound>
CCOC(=O)C(CC(c1ccccc1)N1CCCCC1)[N+](=O)[O-] (stereo not given)

>  <qualitative_label>
n

$$$$
>  <compound>
O=C(N/N=C/c1ccc(OC(F)F)c(OC2CCCC2)c1)c1cnn2c1NC(c1ccccc1)C2 (stereo not given)

>  <qualitative_label>
n

$$$$

Turning now to a further record.
Q: Kindly provide the recorded test outcome for the following compound: CC(C)C1OC23CCCCC2C(C#N)(C#N)C1(C#N)C(=N)O3 (stereo not given)
Result: y

---

- System: SF-268 CNS
- test_method_notes: NCI-60 one-dose screen, 48 h (100 = growth as untreated, 0 = no growth, -100 = all killed)
- experimental_parameters: 10 µM unless noted
Compounds without any hit were thinned out: in the full panel of roughly 83,000, 20% have a hit. Calls of active or inactive are those of the source. The calls were made as follows: active = growth percent below 10; inactive = the rest.
quantity_kind: growth

In the examples that follow, each entry is paired with its recorded growth.
>  <structure_string>
Cc1cc(O)cc2c1[C@H]1CC[C@]3(C)[C@@H](O)CC[C@H]3[C@@H]1C=C2

>  <observed_value>
92.2% (inactive)

$$$$
>  <structure_string>
FC(F)(F)c1cc(CNc2nc(Cl)ncc2Br)cc(C(F)(F)F)c1

>  <observed_value>
93.4% (inactive)

$$$$
>  <structure_string>
O=C(CCc1nnc2sc(/C=C\c3ccccc3)nn12)c1nc2ccccc2[nH]1

>  <observed_value>
107% (inactive)

$$$$
>  <structure_string>
Fc1ccccc1Nc1ccc2nnc(-c3ccncc3)n2n1

>  <observed_value>
101% (inactive)

$$$$

Q: What does the data say about its growth? Entry: `O=C(COc1ccc(/C=C2\CSc3ccccc3C2=O)cc1)c1ccc(Cl)cc1`
Result: 104% (inactive)

Q: Also check `COc1ncnc2c1ncn2C/C(Br)=C(\Br)CCl`
Result: 11.6% (inactive)

Q: Also check `Cc1cccc2c(=O)c3c(sc12)c(NCCNCCO)nc1ccccc13`
Result: 56.6% (inactive)

---

- Tested on: TK-10 renal
- test_method_notes: NCI-60 one-dose screen, 48 h (100 = growth as untreated, 0 = no growth, -100 = all killed)
- experimental_parameters: 10 µM unless noted
This is part of a sample that, as a whole, favours compounds with a hit. Of some 83,000 tested, about 20% had one in any assay.
Reported growth values are given for each entry in this list.
Answer with a number only, understood to be in %.

Q: Fill blank: measured growth of the molecule CCOC(=O)c1cn2c3c(cc(F)cc3c1=O)C(CC)c1ccccc1C2 (stereo unspecified) is ____.
Result: 111

Q: Same for CCOC(=O)c1cnn(CC(O)c2ccc(F)cc2)c1NC(=O)Nc1ccccc1F (stereo unspecified)
Result: 103

Q: And what about the molecule `COc1cc(-c2nc3ccccc3o2)cc(CN2CCN(c3ccccc3)CC2)c1O` ?
Result: 117

Q: # repeat for `COc1ccc(-c2[nH]ncc2Nc2cc(OC)c(OC)c(OC)c2)cc1`
Result: 62

Q: Now try `O=C1C(Br)=C(c2ccccc2)C(=O)C(Br)=C1c1ccccc1` .
Result: 102

Q: Field entry: CC1(C)CC(=O)C2=C(C1)Nc1cc3c(cc1C2c1ccc(F)cc1)OCO3 (stereo unspecified)
Result: 99.4

Q: Item: `COc1cccc(OC)c1OC(=O)c1ccccc1`
Result: 114

Q: Would you kindly repeat that for O=C1NC(=O)C2(CCCC2C(=O)O)N1 (stereo unspecified) ?
Result: 106

Q: Another molecule to look at: O=C(NC1CC1)c1cc2n(n1)CC(c1ccccc1)N2 (stereo unspecified)
Result: 102

Q: Lookup `O=C1/C(=C/c2ccc(Cl)cc2)N=C(c2ccccc2)N1CCc1cccs1`
Result: 54.8

Q: Then `CN1CCN(c2ccc3nc(-c4ccc5nc(-c6ccc(C(F)(F)F)cc6)[nH]c5c4)[nH]c3c2)CC1` ?
Result: 101

---

- Test system: SR leukemia
- test_method_notes: NCI-60 one-dose screen, 48 h
- experimental_parameters: 10 µM unless noted
The panel holds about 83,000 compounds, 20% with a hit somewhere; the sample as a whole holds those more often. Activity calls are given as the source filed them. The calls were made as follows: active = growth percent below 10; inactive = the rest.
The reply should be one of these categories: active, inactive

>  <compound>
Cc1nc2cc(Nc3nc(Cl)nc(Nc4ccc(F)cc4)n3)ccc2n1Cc1ccccc1

>  <measurement_target>
SR leukemia

>  <qualitative_label>
inactive

$$$$
>  <compound>
Cn1c(=O)c(S(=O)(=O)c2ccccc2)cc2ccc3c(cnn3-c3ccc(Cl)cc3)c21

>  <measurement_target>
SR leukemia

>  <qualitative_label>
inactive

$$$$

Q: Called result for `COc1ccc(/C=C2\Oc3cc(C)c(Cl)cc3C2=O)cc1OC`
Result: inactive

Q: Now give it for `O=c1[nH]c(=O)n(Cc2ccc(F)cc2)cc1F` too.
Result: inactive

---

- System: SF-268 CNS
- test_method_notes: NCI-60 one-dose screen, 48 h (100 = growth as untreated, 0 = no growth, -100 = all killed)
- experimental_parameters: 10 µM unless noted
Compounds without any hit were thinned out: in the full panel of roughly 83,000, 20% have a hit. The source made the active and inactive calls. Rule for the calls: active = growth percent below 10; inactive = the rest.
# key: entry, value: growth

Some compounds with recorded growth:
>  <compound>
Cc1nc2cc(Nc3nc(NCCN)nc(Nc4ccc(F)cc4)n3)ccc2n1Cc1ccccc1

>  <growth>
71.8% (inactive)

$$$$
>  <compound>
Clc1ccc(C2=NN(c3ccccc3)[C@H](c3cn(-c4ccccc4)nc3-c3ccccc3)C2)cc1

>  <growth>
109% (inactive)

$$$$
>  <compound>
CON=C1C[C@]2(C[C@@H]3C[C@@H](C/C=C(\C)C[C@@H](C)/C=C/C=C4\CO[C@@H]5[C@H](O)C(C)=C[C@@H](C(=O)O3)[C@]45O)O2)O[C@H](/C(C)=C/C(C)C)[C@H]1C

>  <growth>
58.3% (inactive)

$$$$
>  <compound>
C=CC(=O)N1CC2(CC(n3nc(-c4ccc(Oc5ccccc5)cc4)c4c(N)ncnc43)C2)C1

>  <growth>
10.9% (inactive)

$$$$
>  <compound>
CCN1C(=O)C2(Nc3ccccc3S2)c2cc(C)ccc21 (centres undefined)

>  <growth>
98.2% (inactive)

$$$$
>  <compound>
O=c1oc2ccccc2cc1-c1csc(N=Nc2c(O)[nH]c3ccc(Br)cc23)n1

>  <growth>
101% (inactive)

$$$$
>  <compound>
Oc1ccc(Cl)cc1CNc1nc2ccccc2[nH]1

>  <growth>
-39.7% (active)

$$$$
>  <compound>
CNc1ccc(Br)cc1-c1n[nH]c(=O)[nH]c1=O

>  <growth>
111% (inactive)

$$$$

// switching to the query compound
Q: Entry COc1ccc(/C=N/OCC(O)CN2CCC(O)CC2)cc1OC1CCCC1 (centres undefined) has what growth?
Result: 94.7% (inactive)

---

- Test system: HCT-15 colon
- test_method_notes: NCI-60 one-dose screen, 48 h
- experimental_parameters: 10 µM unless noted
About 83,000 compounds went through this panel and 20% of them were active in at least one assay; those are over-represented in the sample as a whole. Active and inactive are the calls of the source. Rule for the calls: active = growth percent below 10; inactive = the rest.
Use one of these outcomes when replying: yes (1) (active), no (0) (inactive)

>  <molecule>
COC(=O)C1C2CC3c4[nH]c5cc(OC)ccc5c4CCN3CC2CC(OC2CCCCO2)C1OC (stereo not given)

>  <measurement_target>
HCT-15 colon

>  <qualitative_label>
no (0)

$$$$

Q: What did this assay record as the result for `COc1ccc(OC)c(/C=C2\Oc3cc(O)ccc3C2=O)c1` ?
Result: no (0)

Q: Again, but for `C=CC(=O)N1CC2(CCC(n3nc(-c4ccc(Oc5ccccc5)cc4)c4c(N)ncnc43)CC2)C1`
Result: yes (1)

Q: Now the same for CC1SC(c2ccc(Cl)cc2)N(CCc2cccs2)C1=O (stereo not given)
Result: yes (1)
